These measurements were taken from PubChem BioAssay AID1159580.

assay: chemical genetic growth profiling, strain panel (AID 1159580);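 also: tested at 20 µM; growth read once vehicle control cultures reached saturation at 30 °C; 1 = growth at the plate median or of vehicle wells; lower values mean less growth of the strain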; conditions: S. cerevisiae deletion strains, growth OD, locus YHR094C, strain hxt1
Hit rate of the full screen: of about 5,500 compounds, about 2,000 (36%) were called active. Roughly 18% stayed inconclusive and do not appear here. Rule as the data show it: active = normalized growth mostly below about 0.91 (no sharp cut-off); inconclusive = no clear call, values can overlap the other calls; inactive = mostly above about 0.92. This is one part of the list.
API: response.call in yes for active, no for inactive

Some solved entries appear below for comparison.
1) COc1ccc(-c2c(O)c3c(OC)c4c(cc3oc2=O)OC(C)(C)C=C4)cc1; no
2) C/C(=C\CO)CC[C@H](C)CCC[C@H](C)CCCC(C)C; yes
3) C[C@]12CC[C@@H](O)C[C@H]1CCc1ccccc12; no
4) C[C@H]1C(=O)CCC2[C@]3(C)CC[C@@]4(C)C5CC(C)(C)CC[C@]5(C)CC[C@]4(C)C3CC[C@@]21C (stereo not given in full); no

Fill in: this test's call for `COc1cc(O)c2c(c1)C(=O)c1cc(C)cc(O)c1C2=O` is ___ no

Fill in: this test's call for `COc1ccc(-c2c(OC)c3c(OC)c4c(cc3oc2=O)OC(C)(C)C=C4)cc1` is ___ no

Fill in: this test's call for `COc1cc([C@@H]2c3cc4c(cc3[C@H](O)[C@H]3COC(=O)[C@H]23)OCO4)cc(OC)c1OC` is ___ no

Fill in: this test's call for `CN1C(=O)CC[C@H]1c1cccnc1` is ___ no

Fill in: this test's call for `Cc1cc(O)c2c(c1)C(=O)c1cc(O)cc(O)c1C2=O` is ___ yes

Fill in: this test's call for `O=C(/C=C/c1ccccc1)c1c(O)cc(O)cc1O` is ___ no

----------
assay: chemical genetic growth profiling, strain panel (AID 1159580);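 also: tested at 20 µM; growth read once vehicle control cultures reached saturation at 30 °C; 1 = growth at the plate median or of vehicle wells; lower values mean less growth of the strain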; conditions: S. cerevisiae deletion strains, growth OD, locus YER016W, strain bim1
Hit rate of the full screen: of about 5,500 compounds, about 2,000 (36%) were called active. Roughly 18% stayed inconclusive and do not appear here. Cut-off read from the data, not from the text of the source: active = normalized growth mostly below about 0.91 (no sharp cut-off); inconclusive = no clear call, values can overlap the other calls; inactive = mostly above about 0.92. Some of the results follow.
API: response.call in active, inactive

Some solved entries appear below for comparison.
1) O=c1c(O)c(-c2ccccc2)oc2ccc3occc3c12; active
2) COc1ccc([C@@H](C)C(=O)c2ccc(O)cc2O)cc1; inactive

Fill in: this test's call for `O=c1c(O)c(-c2ccc(O)cc2)oc2ccccc12` is ___ active

Fill in: this test's call for CC12CCC(OC(=O)c3ccccc3)CC1CCc1ccccc12 (configuration not stated) is ___ active

Fill in: this test's call for `COc1cc(Cc2cnc(N)nc2N)cc(OC)c1OC` is ___ inactive

Fill in: this test's call for `O=c1c(O)c(-c2ccccc2)oc2cc(O)ccc12` is ___ active

----------
experiment: chemical genetic growth profiling, strain panel (AID 1159580);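 also: tested at 20 µM; growth read once vehicle control cultures reached saturation at 30 °C; 1 = growth at the plate median or of vehicle wells; lower values mean less growth of the strain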; details: S. cerevisiae deletion strains, growth OD, locus YKR001C, strain vps1, hits give low values
Screen size: about 5,500 compounds; about 2,000 (36%) were called active. Another 18% or so got no clear call; they are omitted. Some of the results follow.
VALUE_TYPE: normalized growth
Numbers only.

List reported normalized growth for each of these compounds:
1. O=C1c2cccc(O)c2C(=O)c2c(O)cccc21
2. CCCCN(CC)c1c([N+](=O)[O-])cc(C(F)(F)F)cc1[N+](=O)[O-]
3. O=C(O)c1cccnc1C(=O)O
4. CNC(=O)Oc1cccc2c1OC(C)(C)C2
5. CN1C(=O)CC[C@H]1c1cccnc1

[0.405, 1.04, 0.986, 0.999, 1.03]

List reported normalized growth for each of these compounds:
1. O=C(O)c1cc(O)c2c(c1)C(=O)c1cc(O)cc(O)c1C2=O
2. CNC(C)[C@@H]1CC[C@@H](N)[C@@H](OC2[C@@H](N)C[C@@H](N)[C@H](OC3OC[C@](C)(O)[C@H](NC)[C@H]3O)[C@H]2O)O1 (some centres undefined)
3. N[C@@H](C(=O)N[C@@H]1C(=O)N2C(C(=O)O)=C(Cl)CS[C@H]12)c1ccccc1
4. CN1CCCCC1c1ccc(-c2cccnc2)nc1 (centres undefined)
5. COc1cc2c(cc1OC)C(C)NCC2 (centres undefined)
6. O=C(O)c1cc(=O)c2ccccc2[nH]1

[0.838, 1.02, 1.02, 0.996, 0.982, 1.01]
